test: NCI Yeast Anticancer Drug Screen. Data for the cln2 rad14 strain (AID 165);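 further: 0% = growth equal to vehicle treated cultures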; conditions: S. cerevisiae cln2 rad14 strain, at 50.0 µM
The panel holds about 79,000 compounds, 15% with a hit somewhere; the sample as a whole holds those more often. Active and inactive are the calls of the source. No stated cut-off is given here; in the data, active means growth inhibition above about 70%; inactive means the rest.
Labels: active, inactive

| compound | classLabel |
| --- | --- |
| ClCCN(Cc1ccccc1)CC1COc2ccccc2O1 (stereo not drawn) | active |
| CN(C)[PH+](N(C)C)N(C)C.CN(C)[PH+](N(C)C)N(C)C.[C-]#[O+].[C-]#[O+].[C-]#[O+].[C-]#[O+].[C-]#[O+].[C-]#[O+].[Co].[Co].[Hg] | active |
| O=C(O)c1cc(CCl)ccc1O | inactive |
| CC(c1ccccc1)N1O[C@]12CC[C@@]1(C)C(CCCC13OCCO3)C2 (stereo partly drawn) | active |
| N#CSCC(=O)O (tested in a mixture with another compound) | inactive |
| c1ccc(C(NC2=NCCO2)c2ccccc2)cc1 | inactive |
| N#CC(C#N)=Cc1c(O)ccc2ccccc12 | inactive |
| COc1ccc2c3c1OC1C(C)(O)C(O)CC4C(C2)N(C)CCC341 (stereo not drawn) | inactive |
| CC(C)(C)OOC(=O)/C=C\C(=O)OOC(C)(C)C | active |
| CC(C)(C)C[C](C)(c1ccccc1)[Sn]([CH3])([CH3])[CH3] (stereo not drawn) | inactive |
| O=C(CCN1CC2CCC(CC2)C1)c1cccs1 | inactive |
| O.O.O=Cc1ccccc1O.O=Cc1ccccc1O.[Ni] | inactive |
| NC1=C(N2CC2)C(=O)C(N)=C(N2CC2)C1=O | inactive |
| CNC(=S)P(c1ccccc1)c1ccccc1 | inactive |
| CC1(C(=O)O)CCCC2(C)c3cc(O)ccc3CCC12 (stereo not drawn) | inactive |
| CCCCCCCCCl | inactive |
| [CH3][Sn]([CH3])([CH3])[O]C(=O)CNC(=O)c1ccccc1 | inactive |
| C[N+](C)(C)CC1CCCc2ccccc2C1=O (stereo not drawn) | active |
| CCOP(=S)(OCC)SSSP(=S)(OCC)OCC | inactive |
| CC12C(=O)C=CCC1=CCC1C2CCC2(O)C(=O)OC3(C)C4CC5(C)C(COC16OC23C5C6=O)C(=O)O4 (stereo not drawn) | inactive |
| [Cl][Pt+2][Cl].[NH-]c1ccc(Cl)cc1[NH-] | inactive |
| COC1CC2C=C(C)/C=C/C=C/C(=O)NC(c3ccccc3)C/C=C/CCC(O)CC(=O)C2=C1O (stereo not drawn) | active |
| COc1ccc(/C=C\[N+](=O)[O-])cc1OCc1ccccc1 | inactive |

* * *

test: NCI Yeast Anticancer Drug Screen. Data for the mlh1 rad18 strain (AID 175); conditions: S. cerevisiae mlh1 rad18 strain growth inhibition; at 50.0 µM; stronger effect = higher value
The panel holds about 79,000 compounds, 15% with a hit somewhere; the sample as a whole holds those more often.

| molecule | valueUnits | growth inhibition |
| --- | --- | --- |
| N#CCCCCCl | % | 28.9 |
| [CH3][Pb]([CH3])([CH3])[O]C(=O)c1ccc([N+](=O)[O-])cc1 | % | 42.2 |
| OCCBr | % | -17.9 |
| O=[N+]([O-])c1ccc(/C=N\NP(Br)(c2ccccc2)(c2ccccc2)c2ccccc2)cc1 | % | 4.75 |
| NCCN.O=C([O-])C(=O)[O-].O=C([O-])C(=O)[O-].[Co+3].[K+] | % | -2.4 |
| CC(C)=CC1C(C(=O)OCCOc2ccccc2)C1(C)C (centres undefined) | % | -2.05 |
| CN(N=O)C(=O)NC1CCCCC1 | % | 13.8 |
| CC12CCC3C(CCC4(O)C=CCCC34C=O)C1(O)CC(O)C2c1ccc(=O)oc1 (centres undefined) | % | -16.2 |
| COc1ccccc1NC1=NCC(C)S1 (centres undefined) | % | -2.1 |
| O=S(=O)(O)O/N=C(\Cc1ccccc1)SC1OC(CO)C(O)C(O)C1O (centres undefined) | % | -3.25 |
| c1ccc2c(c1)CCNC2 | % | 24.4 |
| CC12OCCN1CCO2 | % | 4 |
| BrC(Br)c1cccc(C(Br)Br)c1 | % | 56.6 |
| [CH3][Sn]([CH3])([Cl])[S]CCN | % | 18.6 |
| O=C(O)C(=O)Cc1ccc2c(c1)OCO2 | % | 0.5 |
| O=C(O)C1CCCC(C(=O)O)[N-]1.O=C(O)C1CCCC(C(=O)O)[N-]1.[Cr+2] (centres undefined) | % | 14.3 |
| CC(=O)O.CC(=O)O.CC(=O)O.CC(=O)O.[Cu].[Cu] | % | 40.8 |
| CC[C@H]1CN2CCc3c([nH]c4ccccc34)[C@@H]2C[C@@H]1/C(=C/OC)C(=O)OC (tested in a mixture with another compound) | % | -13.9 |
| COc1cccc(OC)c1CCN | % | -36 |
| [Br][Hg][CH]1CCC2CCCC1O2 (centres undefined) | % | 99.5 |
| COC(=O)C(N)Cc1ccc(OC)c(N(CCCl)CCCl)c1 (centres undefined) | % | 6.55 |
| CC(C)(C)[SH+]CC[SH+]C(C)(C)C.[C-]#[O+].[C-]#[O+].[C-]#[O+].[C-]#[O+].[Cr] | % | 3.35 |
| CCOC(CNC(=O)c1ccc(S(=O)(=O)F)cc1)OCC | % | 26.4 |
| COC(=O)[CH2][Sn]([CH2]C(=O)OC)([c]1ccccc1)[c]1ccccc1 | % | 92 |

* * *

Test: NCI Yeast Anticancer Drug Screen. Data for the mec2-1 strain (AID 157)
Conditions: S. cerevisiae mec2-1 strain, at 5.0 µM (retest, dose inferred, filed as 0.5)
Protocol: Growth inhibition of yeast strains with defined genetic alterations is measured as a screen for potential anti-cancer activity. Selected strains with alterations in DNA damage repair or cell cycle control were exposed to compounds and growth inhibition was measured relative to vehicle treated controls. The strain used in this assay is mec2-1
About 79,000 compounds went through this panel and 15% of them were active in at least one assay; those are over-represented in the sample as a whole. Activity calls are given as the source filed them. Cut-off read from the data, not from the text of the source: active = growth inhibition above about 70%; inactive = the rest.
Labels: active, inactive

| compound | classLabel |
| --- | --- |
| CN(C)c1ccc(N=Nc2cccc(C(=O)[O-])c2)cc1.CN(C)c1ccc(N=Nc2cccc(C(=O)[O-])c2)cc1.NC1CCCCC1N.O=[N+]([O-])O.[Pt+4] | inactive |
| O=C(O)C(F)(F)C(F)(F)C(=O)O | inactive |
| C[Se]C([Se]C)=C([Se]C)[Se]C | inactive |
| CC[CH](C)[Sn](=[O])[c]1ccccc1 (stereo not given) | inactive |
| CCC1(O)C(=O)OCc2c1cc1n(c2=O)Cc2cc3cc(C)ccc3nc2-1 (stereo not given) | inactive |
| C(=P(c1ccccc1)(c1ccccc1)c1ccccc1)[P+](c1ccccc1)(c1ccccc1)c1ccccc1.[Cl][Fe]([Cl])([Cl])[Br] | active |
| O=P(O)(Oc1ccccc1)Oc1ccccc1.[Ag] | inactive |
| CC(=O)O.[RuH].c1ccc([PH+](c2ccccc2)c2ccccc2)cc1.c1ccc([PH+](c2ccccc2)c2ccccc2)cc1.c1ccc([PH+](c2ccccc2)c2ccccc2)cc1 | inactive |
| CC[C@@H]1C(=O)OC[C@@H]1Cc1cncn1C | inactive |
| [C-]#[O+].[Cl][Sn]([Cl])[Cl].[Cl][Sn]([Cl])[Cl].[Pt].c1ccncc1 | inactive |
| O=C(CBr)OCCBr | inactive |
| COc1cc(/C=C\[N+](=O)[O-])ccc1O | inactive |
| CN(CCCl)c1ccc(/C=C/C2=[N+](C)c3ccccc3C2(C)C)cc1 | inactive |
| CC(=O)OCC12CC(O)C(C)=CC1OC1C(O)C(OC(C)=O)C2(C)C12CO2 (stereo not given) | inactive |
| OC(c1ccccc1)(c1ccccc1)c1ccccn1 | inactive |
| CN(Cc1ccccc1)CC(O)c1cccc(I)c1 (stereo not given) | inactive |
| CCOP(=O)(OCC)C(O)c1ccccc1Cl (stereo not given) | inactive |
| S=P(OC1CC2CCC1C2)(c1ccccc1)c1ccccc1 (stereo not given) | active |
| NS(=O)(=O)CCl.[Hg] | inactive |
| NC[CH2][Sn]([c]1ccccc1)([CH]1CCCCC1)[CH]1CCCCC1 | active |
| CC(=O)c1ccccc1O.CO.CO.[Cl][Ta][Cl] | inactive |
| CN1C(=O)C23CC4=CC=CC(O)C4N2C(=O)C1(CO)SS3 (stereo not given) | active |
| N#CN(Cc1ccccc1)C(c1ccccc1)(c1ccccc1)c1ccccc1.[I][Sn]([c]1ccccc1)([c]1ccccc1)[c]1ccccc1 | active |
| CCCCCc1cc(/C=C2/N=C(c3ccc[nH]3)C=C2OC)[nH]c1C | inactive |
| N#CSCC(=O)O (tested in a mixture with another compound) | inactive |
| CN(C)c1ccc(C2N(Cc3ccc(N(CCCl)CCCl)cc3)CCCN2Cc2ccc(N(CCCl)CCCl)cc2)cc1 | inactive |
| [N-]=[N+]=NC1(N=[N+]=[N-])C(=O)NN=C(c2ccccc2)C1=O (stereo not given) | inactive |
| O=[N+]([O-])c1ccc(Br)c([N+](=O)[O-])c1 | inactive |
| Cc1ccc2c(C)c3ccc4ccccc4c3c[n+]2c1 | inactive |
| CC12CCC3C(CC=C4CC(SC(=N)N)CCC43C)C1CCC2=O (stereo not given) | inactive |
| CC1=CC(=O)c2c(O)cccc2C1=O | inactive |
| [Cl][Hg][c]1ccc(Cl)s1 | active |
| CCC(C)c1cnc(CC(C)C)c(=O)n1O (stereo not given) | inactive |
| [Se]C1=NCCN1 | inactive |
| O=[N+]([O-])c1ccc2c3c(cccc13)CC2 | inactive |
| COc1ccc2nc3ccccc3c(NCCCCN(C)CCCl)c2c1 | inactive |
| COc1ccc2c(ccc3oc([N+](=O)[O-])cc32)c1 | active |
| Oc1c(Cl)c(Cl)c(O)c(Cl)c1Cl | inactive |
| CC[CH2][Pb]([CH2]CC)([CH2]CC)[NH]S(=O)(=O)c1ccc(C)cc1 | active |
| N#CC1CC[CH-]CC1.[Cl-].[Cl-].[Cl-].[Cl-].[Cl-].[Sb+5].c1ccncc1 | inactive |
| Cc1ccc(C(=O)C2C(c3ccccc3)N2C2CCCCC2)cc1 (stereo not given) | inactive |
| CC(=O)[CH-]C(C)=O.CC(=O)[CH-]C(C)=O.[O-]c1ccccc1.[O-]c1ccccc1.[Ti+4] | inactive |
| CC(=O)[O-].O=C([CH-]C(=O)c1ccccc1)c1ccccc1.O=C([CH-]C(=O)c1ccccc1)c1ccccc1.[Dy+3] | inactive |
| CN(C)CCBr | inactive |
| CCC(CC)COC(=O)CI | inactive |
